- Test system: HL-60(TB) leukemia
- PROTOCOL: NCI tumour cell line growth inhibition, 48 h
Field: TGI. Provide a value for each of the molecules that follow.
The reply should be a number in µM, with the unit left off.

For CC1OC(CC(=O)O)CC2=C1C(=O)c1c(O)cccc1C2=O (centres undefined) the molecule record lists TGI as 0.0582

For CCCCCCCCCCCCCC[n+]1ccc(C)cc1 the molecule record lists TGI as 1.19

For C(=Nc1ccc(-c2nc3ccccc3s2)cc1)c1ccc[nH]1 the molecule record lists TGI as 72.6

For Cl.Fc1c[c-]c(-c2ccccn2)c(F)c1.[Pt].c1ccc([PH+](C[PH+](c2ccccc2)c2ccccc2)c2ccccc2)cc1 the molecule record lists TGI as 0.67

For CN1CCN(c2nc(-c3csc(-c4cccs4)n3)cc3ccccc23)CC1 the molecule record lists TGI as 4.71

For COc1cc2ccnc3c(=C(SC)SC)c(=O)c(c1OC)c23 the molecule record lists TGI as 5.04

---

- Tested on: HT29 colon
- PROTOCOL: NCI tumour cell line growth inhibition, 48 h
Field: TGI. Provide a value for each of the compounds that follow.

For Cc1nc2cc(Nc3ccccc3C(=O)O)ccc2s1 the compound record lists TGI as > 100 µM

For COc1nc2ccc(COc3ccc(C(=O)O)cc3)cc2nc1OC the compound record lists TGI as > 100 µM

For O=C(O)/C=C/c1c[nH]c(=O)[nH]c1=O the compound record lists TGI as > 500 µM

---

- Tested on: NCI-H226 lung
- PROTOCOL: NCI tumour cell line growth inhibition, 48 h; in the data active = GI50 below about 0.43 µM; inactive = the rest
Hello, when you answer, please use one of the following outcomes: class 1 (active), class 0 (inactive)

What did this assay record as the result for CCSC[C@@H]1C[C@](O)(c2ccc(F)cc2)[C@@H](c2ccc(F)cc2)O1 ?
class 0

What did this assay record as the result for COc1cc(C)c2sc3ccccc3c(=O)c2c1NCCN(C)C ?
class 0

What did this assay record as the result for CC1SC2(CCCCC2)N(NC(=O)c2[nH]c3ccc(Br)cc3c2-c2ccccc2)C1=O (configuration not stated) ?
class 0

What did this assay record as the result for CC(=O)/C=C/c1ccc(OCc2ccc(Cl)cc2)cc1 ?
class 0

What did this assay record as the result for CN(CCC(=O)/C(=C\c1ccccc1)c1ccc(Cl)cc1)Cc1ccccc1 ?
class 0

What did this assay record as the result for NC(=O)c1sc(-n2cnc3cc(C(F)(F)F)ccc32)cc1OCc1ccccc1Br ?
class 0

What did this assay record as the result for Cc1cccc2c3c(sc12)C(c1ccc(F)cc1)C(C#N)=C(N)O3 (configuration not stated) ?
class 1

---

- System: HT29 colon
- PROTOCOL: NCI tumour cell line growth inhibition, 48 h
MEASURED ATTRIBUTE: TGI

For NC(=S)N1N=C2c3ccccc3CC[C@H]2[C@@H]1c1ccc(Cl)cc1 the compound record lists TGI as > 100 µM

For O=C(SCc1cccc2ccccc12)c1ccc(Cl)cc1 the compound record lists TGI as > 100 µM

For CC([O-])=C1C(=O)c2ccccc2C1=O.CC([O-])=C1C(=O)c2ccccc2C1=O.CC[O-].CC[O-].[Ti+4] the compound record lists TGI as > 100 µM

For COc1ccc(NC(=O)CC(=O)n2nc(C)c(N=Nc3ccccc3C(=O)O)c2C)cc1 the compound record lists TGI as > 100 µM

For O=[N+]([O-])c1cc2no[n+]([O-])c2cc1N1CCCCC1 the compound record lists TGI as 3.86 µM

For CCC(C)C(=O)OCC(=O)c1ccc(-c2ccccc2)cc1 (centres undefined) the compound record lists TGI as > 100 µM

For C/C(=N\Nc1nc2ccccc2s1)c1cc2ccccc2cn1 the compound record lists TGI as 11 µM

For C[C@H](CCC1SC1(C)C)C1CCC2(C)C3=C(CC[C@]12C)[C@@]1(C)CC[C@H](O)C(C)(C)C1CC3 (some centres undefined) the compound record lists TGI as > 100 µM

For CC1(C)Cc2c(Br)c(Br)c(Br)c(OCC(O)CN3CCN(c4ccccn4)CC3)c2O1 (centres undefined) the compound record lists TGI as 18 µM

---

- Test system: BT-549 breast
- PROTOCOL: NCI tumour cell line growth inhibition, 48 h
Field: TGI. Provide a value for each of the molecules that follow.

For COC(=O)C(C(=O)OC)C(Br)C(Br)C(Br)c1ccccc1 (stereo not drawn) the molecule record lists TGI as 27.9 µM

For O=C1C(c2c(O)[nH]c3ccc(Br)cc23)=Nc2ccc(Br)cc21 the molecule record lists TGI as > 100 µM

For CCC(C)C(=O)OCC(=O)c1ccc(-c2ccccc2)cc1 (stereo not drawn) the molecule record lists TGI as > 100 µM

For C/C(=N\NC(=S)N1CCCCCC1)c1cccc2cccnc12 the molecule record lists TGI as > 92.4 µM

For COc1ccccc1C1(c2c(OC)c(=O)c2=O)SCCCS1 the molecule record lists TGI as > 100 µM

For CC(C)(NC(=O)OCc1ccccc1)C(=O)OC(=O)C(C)(C)NC(=O)OCc1ccccc1 the molecule record lists TGI as > 100 µM

For CC1(C)OC2OC(C(COS(=O)(=O)C(F)(F)F)N=[N+]=[N-])C(OC(=O)c3ccccc3)C2O1 (stereo not drawn) the molecule record lists TGI as > 100 µM

For Cc1ccc(C2(c3ccc(F)cc3)OC(=O)c3ccccc32)c(O)c1 (stereo not drawn) the molecule record lists TGI as 44.6 µM

---

- System: SF-268 CNS
- PROTOCOL: NCI tumour cell line growth inhibition, 48 h
Field: TGI. Provide a value for each of the compounds that follow.

For CN(C)c1cccc(F)c1C(=O)NC(=O)Nc1ccc(Cl)cc1 the compound record lists TGI as > 100 µM

For CC(Oc1ccccc1)C(=O)NNC(=O)OC(C)(C)C (stereo not given) the compound record lists TGI as > 100 µM

For O=C1CSC(c2cccc(Cl)c2)N1c1ccc(-c2ccc(-n3c(-c4ccccc4)nc4ccccc4c3=O)cc2)cc1 (stereo not given) the compound record lists TGI as > 100 µM

For CC(=O)OC1[C@H](OC(C)=O)C2=C(C)[C@@H](OC(C)=O)C[C@@]2(C(C)(C)O)[C@@H](OC(C)=O)[C@H]2[C@@]1(C)[C@@H](OC(C)=O)CC(OC(C)=O)[C@]21CO1 (stereo not given in full) the compound record lists TGI as > 100 µM

For CC(C)C1=CC(=O)[C@@](C)(C2[C@H](O)C[C@@]3(C)[C@@H]4CC=C5[C@@H](CC[C@@H](OC6OCC(O)C(O)C6OC6OC(C)C(O)C(O)C6O)C5(C)C)[C@]4(C)C(=O)C[C@]23C)O1 (stereo not given in full) the compound record lists TGI as > 100 µM

For COC(=O)Cc1cc(=O)[nH]c2c1C(=O)CCC2 the compound record lists TGI as > 100 µM

For O=C(CC1C=Cc2ccccc2N1C(=O)c1ccccc1)c1ccccc1 (stereo not given) the compound record lists TGI as > 100 µM

For COc1cccc(SSc2cccc(OC)c2C(=O)O)c1C(=O)O the compound record lists TGI as > 100 µM

For OCCN(CCO)c1cccc(N(CCO)CCO)n1 the compound record lists TGI as > 100 µM

For CC1(C)O[C@@H]2C[C@H]3[C@@H]4C[C@H](F)C5=CC(=O)C=C[C@]5(C)[C@@]4(F)[C@@H](O)C[C@]3(C)[C@]2(C(=O)CO)O1 the compound record lists TGI as > 100 µM

For O=c1[nH]c(=O)n(COCc2ccccc2)cc1Nc1ccc(Br)cc1 the compound record lists TGI as > 100 µM

For COc1ccc(-c2c(-c3ccccc3)c(C)nc3nc(SC)nc(SC)c23)cc1OC the compound record lists TGI as > 100 µM

For C=C1C(=O)OC2CC(C)C3C4OC4C(O)C3(C)C(O)C12 (stereo not given) the compound record lists TGI as 71.7 µM

For Cc1c2c(c(C)c3c1[nH]c1ccccc13)CN(C)CC2 the compound record lists TGI as 47.6 µM

For COc1ccc(-c2c3c(nc4n[nH]c(-c5ccc(Cl)cc5)c24)-c2ccccc2C(=O)C3=O)cc1 the compound record lists TGI as 2.99 µM

For CCSC[C@@H]1C[C@](O)(c2ccc(F)cc2)[C@@H](c2ccc(F)cc2)O1 the compound record lists TGI as 29.6 µM

For N#CC1=C(O)NC(O)=C(C#N)C1c1ccc(C2C(C#N)=C(O)NC(O)=C2C#N)cc1 the compound record lists TGI as > 100 µM

For O=C(O)c1nc2ccc(C(F)(F)F)cc2nc1Nc1ccc(F)cc1 the compound record lists TGI as 48.1 µM

For COc1cccc(N2C(=O)C3C4C=C5c6ccccc6N(c6ccccc6)C5(C3C2=O)[C@H]2C(=O)N(c3cccc(OC)c3)C(=O)[C@@H]42)c1 (stereo not given in full) the compound record lists TGI as > 100 µM

For O=C(/C(=C\I)c1ccccc1)c1ccccc1 the compound record lists TGI as > 46.2 µM

For COc1cc2oc3c(c(=O)c2c(O)c1/C=C/C(C)C)C(C=C(C)C)Oc1cc(O)ccc1-3 (stereo not given) the compound record lists TGI as 36.8 µM

For CCCCCCCCCCCCCC[n+]1ccc(C)cc1 the compound record lists TGI as 1.7 µM

For CCC(C)C(=O)OCC(=O)c1ccc(-c2ccccc2)cc1 (stereo not given) the compound record lists TGI as > 100 µM

For CCCCCCCCCCCc1c(O)c(=O)c2c(oc3c(=O)c(CCCCCCCCCCC)c(O)c(=O)c3n2-c2ccc(N(C)C)cc2)c1=O the compound record lists TGI as 58.1 µM

For CCOC(=O)C1(C#N)CC1 the compound record lists TGI as > 100 µM

For COC1C(N(C)C)=C(c2ccccc2)C(=O)N2CCc3ccccc3C12 (stereo not given) the compound record lists TGI as > 100 µM

For Cc1cccc2c3c(sc12)C(c1ccc(F)cc1)C(C#N)=C(N)O3 (stereo not given) the compound record lists TGI as 17.5 µM

For O=C1CCCCC12CCC/C2=N\O (stereo not given) the compound record lists TGI as > 100 µM

For Cc1cc(Cl)ccc1C(=O)c1ccc2ccccc2c1C(=O)O the compound record lists TGI as > 100 µM

For CCC(C)C1=C(O)[N+]2([O-])Oc3ccc(-c4c(O)c(O)c(-c5ccc(OC(C)=O)cc5)c(OC(C)=O)c4OC(C)=O)cc3OC2(C(C)CC)C(=O)N1O (stereo not given) the compound record lists TGI as > 50 µM

For CC1=C(C)CC2(C=C(C(C)(C)C)C(=O)C(C(C)(C)C)=C2)SC1 the compound record lists TGI as 46.6 µM

For Cc1ccc(C2(c3ccc(F)cc3)OC(=O)c3ccccc32)c(O)c1 (stereo not given) the compound record lists TGI as 86.7 µM

For COc1cc2ccnc3c(=C(SC)SC)c(=O)c(c1OC)c23 the compound record lists TGI as 60.3 µM

For O=C(NCCCl)SCCO the compound record lists TGI as > 100 µM

For COc1cc2c(c(OC)c1OC)-c1ccc(N=NC(N)=S)c(=O)cc1[C@@H](NC(C)=O)CC2 the compound record lists TGI as > 100 µM
